# EXPERIMENTAL_SYSTEM: Recombinant human KIF18A (1-467 His-tagged) protein (Homo sapiens (Human))
# Sequence (Q8NI77 1-467): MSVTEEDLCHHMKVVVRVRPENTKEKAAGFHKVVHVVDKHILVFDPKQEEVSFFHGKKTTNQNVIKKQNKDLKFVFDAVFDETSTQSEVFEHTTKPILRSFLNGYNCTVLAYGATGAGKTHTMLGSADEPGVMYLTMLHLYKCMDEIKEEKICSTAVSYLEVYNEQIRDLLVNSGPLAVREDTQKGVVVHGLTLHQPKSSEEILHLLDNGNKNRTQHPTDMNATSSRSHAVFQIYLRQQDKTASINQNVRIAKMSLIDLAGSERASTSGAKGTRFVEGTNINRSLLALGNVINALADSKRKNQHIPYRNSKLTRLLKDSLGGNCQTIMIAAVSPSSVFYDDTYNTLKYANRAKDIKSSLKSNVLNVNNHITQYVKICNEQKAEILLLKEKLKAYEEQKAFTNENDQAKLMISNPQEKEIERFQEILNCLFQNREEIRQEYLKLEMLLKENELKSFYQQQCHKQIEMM
# Sequence (P02550 whole entry partner): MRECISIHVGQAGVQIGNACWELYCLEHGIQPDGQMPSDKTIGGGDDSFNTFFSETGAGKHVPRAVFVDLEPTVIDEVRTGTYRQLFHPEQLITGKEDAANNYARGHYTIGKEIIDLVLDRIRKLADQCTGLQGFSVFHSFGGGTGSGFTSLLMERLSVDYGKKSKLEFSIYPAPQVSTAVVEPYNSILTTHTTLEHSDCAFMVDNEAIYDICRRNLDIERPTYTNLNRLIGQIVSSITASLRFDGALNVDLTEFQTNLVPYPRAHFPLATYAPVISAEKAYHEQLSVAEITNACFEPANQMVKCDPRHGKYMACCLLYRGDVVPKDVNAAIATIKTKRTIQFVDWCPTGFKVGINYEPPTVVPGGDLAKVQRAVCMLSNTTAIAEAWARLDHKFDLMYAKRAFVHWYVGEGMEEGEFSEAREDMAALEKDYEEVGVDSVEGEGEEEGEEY
# Sequence (P02554 whole entry partner): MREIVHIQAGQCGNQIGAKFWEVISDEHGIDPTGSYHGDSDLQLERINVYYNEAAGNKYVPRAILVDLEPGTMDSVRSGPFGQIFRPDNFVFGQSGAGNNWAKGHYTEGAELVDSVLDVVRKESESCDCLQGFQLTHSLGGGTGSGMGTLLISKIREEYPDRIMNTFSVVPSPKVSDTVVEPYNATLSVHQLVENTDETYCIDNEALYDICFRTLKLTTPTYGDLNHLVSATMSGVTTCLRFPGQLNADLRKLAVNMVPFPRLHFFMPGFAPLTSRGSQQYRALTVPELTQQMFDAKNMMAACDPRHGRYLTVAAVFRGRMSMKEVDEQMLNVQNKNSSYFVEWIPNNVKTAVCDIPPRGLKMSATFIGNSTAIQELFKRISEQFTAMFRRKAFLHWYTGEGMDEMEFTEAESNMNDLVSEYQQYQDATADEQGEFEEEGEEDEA
# ASSAY_NOTES: KIF18A Enzyme Assay: microtubule-stimulated ATPase activity (ADP-Glo)
# EXPERIMENTAL_SETUP: read-out: KIF18A ATPase IC50; 30 nM KIF18A, 30 μg/mL pig microtubules, ATP at Km 75 μM, ADP-Glo luminescence
pIC50 for assorted molecules
Interpret pIC50 as the negative base-10 log of the concentration measured in mol/L.

For orientation, consider the following solved cases.
# MOLECULE, EXPERIMENTAL_RESULT
data = [
    ("Cc1cc(NC(=O)c2ccc(NS(=O)(=O)CCCO)cc2N2CCC3(CC2)CC3)nc(N2CCO[C@H](C)C2)n1", 6.97),
    ("CCS(=O)(=O)c1ccc(C(=O)Nc2cc(C)nc(N3CCC(F)(F)CC3)n2)c(N2CCC3(CC2)CC3)c1", 6.97),
    ("Cc1cc(NC(=O)c2ccc(S(=O)(=O)NCCO)cc2N2CCC3(CC2)CC3)nc(OCCC(F)(F)F)n1", 7.38),
    ("Cc1cc(NC(=O)c2ccc(NS(=O)(=O)C3CCOC3)cc2N2CCC3(CC2)CC3)nc(N2CCC(F)(F)CC2)n1 (stereo in doubt)", 7.10),
    ("O=C(Nc1ccnc(N2CCC(F)(F)CC2)n1)c1ccc(S(=O)(=O)NCCO)cc1N1CCC2(CC1)CC2", 7.64),
    ("O=C(Nc1ccnc(N2CCC(F)(F)CC2)c1)c1ccc(NS(=O)(=O)CCO)cc1N1CCC2(CC1)CC2", 7.77),
]

Entry under test: CC1(NS(=O)(=O)c2ccc(C(=O)Nc3ccnc(C(C)(C)O)n3)c(N3CCC4(CC3)CC4)c2)COC1 . Its pIC50 was 6.84
